Answer each item with its documented pIC50.
# measured on: EZH2 within the PRC2 complex (Homo sapiens)
# Construct: FLAG; made in house; host or cells: Sf9 cells
# Sequence (Q15910 whole entry): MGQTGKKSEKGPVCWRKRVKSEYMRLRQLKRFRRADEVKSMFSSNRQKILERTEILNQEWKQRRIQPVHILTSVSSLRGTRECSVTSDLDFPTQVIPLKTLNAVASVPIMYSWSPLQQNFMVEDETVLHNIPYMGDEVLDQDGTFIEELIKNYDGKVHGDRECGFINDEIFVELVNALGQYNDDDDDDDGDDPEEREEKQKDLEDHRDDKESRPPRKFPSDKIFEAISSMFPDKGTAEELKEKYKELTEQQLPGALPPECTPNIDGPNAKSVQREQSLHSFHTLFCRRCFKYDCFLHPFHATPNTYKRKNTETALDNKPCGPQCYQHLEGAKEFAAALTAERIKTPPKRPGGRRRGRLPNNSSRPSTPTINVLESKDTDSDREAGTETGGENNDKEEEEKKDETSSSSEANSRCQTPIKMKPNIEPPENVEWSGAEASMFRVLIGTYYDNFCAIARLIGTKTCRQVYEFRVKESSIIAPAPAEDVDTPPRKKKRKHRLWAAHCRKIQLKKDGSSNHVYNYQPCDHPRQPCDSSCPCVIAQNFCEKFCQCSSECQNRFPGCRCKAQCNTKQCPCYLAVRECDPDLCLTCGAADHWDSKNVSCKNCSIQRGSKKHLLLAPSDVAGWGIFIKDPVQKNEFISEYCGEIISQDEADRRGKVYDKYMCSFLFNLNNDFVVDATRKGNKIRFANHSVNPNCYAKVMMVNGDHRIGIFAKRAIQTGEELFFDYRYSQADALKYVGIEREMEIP
# Sequence (O75530 whole entry partner): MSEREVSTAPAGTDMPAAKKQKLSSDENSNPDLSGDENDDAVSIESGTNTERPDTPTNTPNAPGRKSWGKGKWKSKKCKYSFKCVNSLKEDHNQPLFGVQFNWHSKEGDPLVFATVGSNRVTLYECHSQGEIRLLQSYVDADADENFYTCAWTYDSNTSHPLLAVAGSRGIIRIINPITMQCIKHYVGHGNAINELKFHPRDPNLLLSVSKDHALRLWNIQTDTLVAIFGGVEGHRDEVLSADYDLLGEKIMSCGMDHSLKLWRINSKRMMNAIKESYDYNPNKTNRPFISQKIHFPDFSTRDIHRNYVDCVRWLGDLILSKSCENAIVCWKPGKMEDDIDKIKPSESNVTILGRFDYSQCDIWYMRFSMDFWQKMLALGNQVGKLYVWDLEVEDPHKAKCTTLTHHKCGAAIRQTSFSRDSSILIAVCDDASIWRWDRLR
# Sequence (Q15022 whole entry partner): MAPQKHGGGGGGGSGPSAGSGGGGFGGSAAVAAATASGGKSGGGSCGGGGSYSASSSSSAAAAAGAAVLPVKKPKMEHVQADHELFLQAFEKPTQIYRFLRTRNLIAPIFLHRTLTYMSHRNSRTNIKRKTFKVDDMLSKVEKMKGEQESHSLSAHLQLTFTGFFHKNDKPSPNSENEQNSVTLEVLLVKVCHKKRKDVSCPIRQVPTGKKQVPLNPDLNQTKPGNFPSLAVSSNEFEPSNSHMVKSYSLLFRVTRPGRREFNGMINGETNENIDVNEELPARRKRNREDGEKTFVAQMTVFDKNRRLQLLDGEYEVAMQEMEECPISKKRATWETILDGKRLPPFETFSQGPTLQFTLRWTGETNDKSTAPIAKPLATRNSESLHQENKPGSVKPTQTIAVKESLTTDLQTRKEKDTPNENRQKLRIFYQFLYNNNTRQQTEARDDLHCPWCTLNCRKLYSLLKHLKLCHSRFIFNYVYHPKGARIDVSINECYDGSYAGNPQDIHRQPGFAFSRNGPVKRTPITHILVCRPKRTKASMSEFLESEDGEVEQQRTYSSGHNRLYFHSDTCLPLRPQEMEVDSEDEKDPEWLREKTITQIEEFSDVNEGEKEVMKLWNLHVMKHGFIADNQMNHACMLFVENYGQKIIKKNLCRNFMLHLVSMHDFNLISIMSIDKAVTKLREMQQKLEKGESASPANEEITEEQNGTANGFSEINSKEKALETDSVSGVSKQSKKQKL
# Sequence (Q09028 whole entry partner): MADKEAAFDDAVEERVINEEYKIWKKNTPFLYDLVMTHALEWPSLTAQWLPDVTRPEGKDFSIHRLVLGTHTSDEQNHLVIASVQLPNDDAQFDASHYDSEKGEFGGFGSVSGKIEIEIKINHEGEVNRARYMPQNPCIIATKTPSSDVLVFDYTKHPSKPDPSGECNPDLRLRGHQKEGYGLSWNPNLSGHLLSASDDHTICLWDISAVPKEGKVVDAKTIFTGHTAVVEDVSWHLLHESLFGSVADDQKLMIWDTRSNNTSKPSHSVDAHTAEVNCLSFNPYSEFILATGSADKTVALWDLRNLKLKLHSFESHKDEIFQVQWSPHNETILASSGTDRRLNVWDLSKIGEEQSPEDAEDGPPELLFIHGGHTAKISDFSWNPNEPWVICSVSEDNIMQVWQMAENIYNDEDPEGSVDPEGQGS
# Sequence (Q6ZN18 whole entry partner): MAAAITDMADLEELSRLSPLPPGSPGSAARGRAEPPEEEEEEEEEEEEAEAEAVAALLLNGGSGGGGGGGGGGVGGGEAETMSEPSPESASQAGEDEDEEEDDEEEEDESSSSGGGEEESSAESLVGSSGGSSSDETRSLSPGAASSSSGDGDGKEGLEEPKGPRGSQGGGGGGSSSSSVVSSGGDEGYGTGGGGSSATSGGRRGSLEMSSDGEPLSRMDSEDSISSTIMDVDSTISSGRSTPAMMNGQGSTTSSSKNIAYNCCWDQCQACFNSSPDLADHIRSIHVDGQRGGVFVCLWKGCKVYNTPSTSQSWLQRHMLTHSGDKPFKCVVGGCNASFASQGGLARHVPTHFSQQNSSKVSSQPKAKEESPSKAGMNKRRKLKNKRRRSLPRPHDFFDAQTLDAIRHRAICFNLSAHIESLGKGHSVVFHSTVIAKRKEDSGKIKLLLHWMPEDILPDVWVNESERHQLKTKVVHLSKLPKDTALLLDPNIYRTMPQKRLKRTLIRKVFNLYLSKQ
# test summary: Assay Protocol 2: EZH2 methyltransferase scintillation proximity assay, biotinylated histone H3 peptide substrate
# Type: biochemical
# condition context: SPA, 3H-SAM, biotinylated unmethylated histone H3K27 peptide substrate, 5-member PRC2 complex
Give bare numbers, as −log10 of the molar value.

In the examples that follow, each entry is paired with its recorded pIC50.
CCN(c1cccc2c1C/C=C/CCc1cc(C)[nH]c(=O)c1CNC2=O)[C@H]1CC[C@H](N(C)C)CC1 :: 6.90
CCN(c1cccc2c1C/C=C/CCc1cc(C)[nH]c(=O)c1CNC2=O)[C@H]1CC[C@H](NCC(F)F)CC1 :: 6.90

Would you mind listing pIC50 for each of the following compounds?
1. CCN(c1cccc2c1C/C=C/CCc1cc(C)[nH]c(=O)c1CNC2=O)[C@H]1CC[C@H](O)CC1
2. CCN(c1cccc2c1C/C=C/CCc1cc(C)[nH]c(=O)c1CN(C)C2=O)C1CCOCC1

-- reply
1: 6.90; 2: 6.90

-- ask # input compound: CCN(c1cccc2c1C/C=C/CCc1cc(C)[nH]c(=O)c1CNC2=O)[C@H]1CC[C@H](N(C)CC(F)F)CC1 ; wanted: its pIC50
-- reply 7.00
